- SYSTEM NAME: T1, ECF15_524
- T1 chain: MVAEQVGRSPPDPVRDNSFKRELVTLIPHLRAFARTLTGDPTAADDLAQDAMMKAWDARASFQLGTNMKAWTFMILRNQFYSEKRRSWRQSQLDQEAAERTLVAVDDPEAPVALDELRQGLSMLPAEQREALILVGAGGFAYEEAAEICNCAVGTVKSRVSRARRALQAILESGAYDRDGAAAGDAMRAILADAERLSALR
READOUT LABEL: fold repression
One number for each entry.

[
  {
    "BINDER": "AS16_3622 (protein) MMKTDELISLLATAEGPVDRHALARRLGLALLAGLLGALLLTVALYGVRSDLAEVARTPLFWAKVALPTSLALLGLWLTQRLARPGVRGGALWGLLGVPLLLVWLGAAISLFGAPPEARADLIFGRTWRTCALNITLLSTPVFIAVFWALRGLAPTRLRQAGAAGGLLAGSTATLVYCLHCPEMGVPFWGLWYLLGMLVPTLLGAVLGPRLLRW",
    "READOUT LABEL": "fold repression",
    "READOUT VALUE": 3.36
  }
]

Let us move to another entry and its fold repression.
Problem: Bench note: what fold repression did AS25_1643_cl43 (protein) MTTDSNFNDPCRRQFSRDLPQKMARHTNEATGAMDMVKRDRFELLSAYLGGEVTAAERRQVEDWPANDVAVQRLYSRLLKLRQGIRTMPIPTAQQSPETTAEQVFAKVNRRSRLAWKLGGAAVAACVIGAVTNWLPGRQTGIPQLAQQPQEQPTQAVTTPDALPMIALNNPVIEIPKAAVASPTKFIQPQPQLGEIPPDIN show?
Solution: 1.18
